Parameter: T/C. Scope: all listed entries.
System: L1210 leukemia ip in BDF1 mice, survival T/C
Assay: NCI In Vivo Anticancer Drug Screen. Data for tumor model L1210 Leukemia (intraperitoneal) in B6D2F1 (BDF1) mice
Details: endpoint: mean survival time; dose: 200.0 mg/kg/injection; schedule: Q04DX002 (ip); vehicle: saline with Tween-80; higher = longer survival
Inconclusive results and toxic doses are left out.

> print(dat)
                               compound                         system.under.test           result
1   CC(C)(CP(c1ccccc1)c1ccccc1)c1ccccc1  L1210 leukemia ip in BDF1 mice, survival T/C  92 % of control
2  NCC(=O)N/C(=C/c1ccccc1)C(=O)NCC(=O)O  L1210 leukemia ip in BDF1 mice, survival T/C  97 % of control

Query: GET /values?readout=T/C&item= O=P(O)(Oc1cccc(Cl)c1)Oc1cccc(Cl)c1
Result: 104 % of control

Query: GET /values?readout=T/C&item= Oc1ccccc1C1CC2CCC1C2 (configuration not stated)
Result: 100 % of control

Query: GET /values?readout=T/C&item= C1=C(c2ccccc2)N(Cc2ccccc2)C(c2ccccc2)=CN1Cc1ccccc1
Result: 96 % of control

Query: GET /values?readout=T/C&item= CCCCOCCOC(=O)C1OC1(C)c1ccccc1 (configuration not stated)
Result: 102 % of control
